These data points were gathered from ChEMBL document CHEMBL5154744.

Assay: Inhibition of His-tagged Trypanosoma brucei HGPRT1 expressed in Escherichia coli BL21 (DE3) cells using PRib-PP as substrate by spectrophotometric assay
Test readout: pKi
Scale: pKi equals -log10([C]), with [C] in mol/L.

Query :: Form field: reported pKi of `Nc1nc2c(ncn2C[C@H](COCP(=O)([O-])[O-])OCCCP(=O)([O-])[O-])c(=O)[nH]1.[Na+].[Na+].[Na+].[Na+]`
Result :: 7.40

Query :: Can you share its pKi? I mean this compound: O=c1[nH]cnc2c1ncn2CCCC(O)C(O)P(=O)(O)O (stereo not drawn)
Result :: 5.15

Query :: What value of measured pKi is listed for `Nc1nc2c(ncn2C[C@@H](COCP(=O)([O-])[O-])OC[C@H](O)P(=O)([O-])[O-])c(=O)[nH]1.[Na+].[Na+].[Na+].[Na+]` ?
Result :: 8.70

Query :: Can you look up the measured pKi of O=c1[nH]cnc2c1ncn2C[C@H](COCP(=O)([O-])[O-])OCC(O)P(=O)([O-])[O-].[Na+].[Na+].[Na+].[Na+] (stereo partly drawn) for me?
Result :: 6.52

Query :: What value of measured pKi is listed for O=c1[nH]cnc2c1ncn2CCOCC(O)P(=O)(O)O (stereo not drawn) ?
Result :: 6.22

Query :: Form field: reported pKi of Nc1nc2c(ncn2C[C@@H](COCP(=O)([O-])[O-])OCC(O)CO)c(=O)[nH]1.[Na+].[Na+] (stereo partly drawn)
Result :: 6.52

Query :: What value of pKi has been recorded for this entry: `Nc1nc2c(ncn2C[C@@H](COCP(=O)([O-])[O-])OCCCP(=O)([O-])[O-])c(=O)[nH]1.[Na+].[Na+].[Na+].[Na+]`
Result :: 8.00

Query :: // pKi lookup, key: Nc1nc2c(ncn2C[C@H](COCP(=O)([O-])[O-])OCC(O)P(=O)([O-])[O-])c(=O)[nH]1.[Na+].[Na+].[Na+].[Na+] (stereo partly drawn)
Result :: 7.40

====

Can you tell me Ki for the items I'm about to list?
Assay: Inhibition of His-tagged Trypanosoma brucei HGPRT1 expressed in Escherichia coli BL21 (DE3) cells using PRib-PP as substrate by spectrophotometric assay
Write the value in nM as a bare number.

Query :: Using the record for `O=c1[nH]cnc2c1ncn2C[C@@H](COCP(=O)([O-])[O-])OCCCP(=O)([O-])[O-].[Na+].[Na+].[Na+].[Na+]` , report its Ki.
Result :: 400

Query :: Given the compound Nc1nc2c(ncn2C[C@H](COCP(=O)([O-])[O-])OCC(O)CO)c(=O)[nH]1.[Na+].[Na+] (some centres undefined) , what is its reported Ki?
Result :: 500

Query :: Please report the recorded Ki for `O=c1[nH]cnc2c1ncn2C[C@H](COCP(=O)([O-])[O-])OCCCP(=O)([O-])[O-].[Na+].[Na+].[Na+].[Na+]` .
Result :: 1500

Query :: For the compound shown here, `O=c1[nH]cnc2c1ncn2CCC/C=C/P(=O)(O)O` , give the reported Ki.
Result :: 1000

Query :: # input compound: Nc1nc2c(ncn2C[C@@H](COCP(=O)([O-])[O-])OCC(O)P(=O)([O-])[O-])c(=O)[nH]1.[Na+].[Na+].[Na+].[Na+] (some centres undefined) ; wanted: its Ki
Result :: 5

Query :: Looking for the measured Ki of O=c1[nH]cnc2c1ncn2C[C@H](COCP(=O)([O-])[O-])OCC(O)CO.[Na+].[Na+] (some centres undefined) , can you help?
Result :: 2400

Query :: Requested field: Ki. Item: `Nc1nc2c(ncn2C[C@@H](COCP(=O)([O-])[O-])OC[C@@H](O)P(=O)([O-])[O-])c(=O)[nH]1.[Na+].[Na+].[Na+].[Na+]`
Result :: 2

Query :: Which Ki is listed for O=c1[nH]cnc2c1ncn2C[C@@H](COCP(=O)([O-])[O-])OCC(O)CO.[Na+].[Na+] (some centres undefined) ?
Result :: 1000

Query :: Give the measured Ki of O=c1[nH]cnc2c1ncn2C[C@@H](COCP(=O)([O-])[O-])OCC(O)P(=O)([O-])[O-].[Na+].[Na+].[Na+].[Na+] (some centres undefined) .
Result :: 30
